# Measured target: SARS2-PLpro (Severe acute respiratory syndrome coronavirus 2)
The reader will find reported IC50 values listed item by item below.
Write the number in µM without appending the unit.

{"Smiles text": "O=C(Nc1ccccc1Cl)c1sc(=S)n2c1[nH]c(=O)c1ccccc12", "Measured target": "SARS2-PLpro (Severe acute respiratory syndrome coronavirus 2)", "Obs value": 7.4}

Please examine the following record next.
Tell me reported IC50 for Cc1cccc(NC(=O)c2sc(=S)n3c2[nH]c(=O)c2cc4c(cc23)OCO4)c1 , tested with SARS2-PLpro (Severe acute respiratory syndrome coronavirus 2). 15.8

###

# Measured target: SARS2-PLpro (Severe acute respiratory syndrome coronavirus 2)
Parameter measured: Kd (µM)
Write the number in µM without appending the unit.

Tell me reported Kd for O=C(Nc1ccccc1Cl)c1sc(=S)n2c1[nH]c(=O)c1ccccc12 [F0213] , tested with SARS2-PLpro (Severe acute respiratory syndrome coronavirus 2). 40.5
